# Tested on: glycogen synthase kinase-3 (GSK3A per assay name; protocol says GSK3B)
# ASSAY_PROTOCOL: GSK3 binders on small-molecule microarrays, primary screen, biochemical, small-molecule microarray, 635 nm fluorescence, GSK3A (AID 1103); note: the record names both GSK3A and GSK3B
# PROTOCOL_CONDITIONS: small-molecule microarray binding, fluorescence 635 nm; higher = more signal
Tag: fulfilled if measured composite z-score is not below 0.4, not fulfilled if it is.

Solved entries:
• CC(C)(C)OC(=O)CC[C@@]1(C(=O)NCC(O)CO)N=C(c2ccc(OCCCO)cc2)O[C@@H]1c1ccccc1N=[N+]=[N-] (some centres not stated) = not fulfilled
• Cc1ccc(S[C@]2(C(=O)NCCN3CCOCC3)CC(=O)N(Cc3ccccc3Cl)[C@@H]2c2ccc(CO)cc2)cc1 = not fulfilled
• C=C(CCCC)/C(=C/C[C@@H](OC(C)=O)c1ccccc1OCCO)c1cnc2ccccc2c1 = not fulfilled
• Cc1ccc(C(C)CC(O)C2C=CC3C(=O)N(c4ccccc4)C(=O)C3N2Nc2ccc([N+](=O)[O-])cc2)o1 (configuration not stated) = fulfilled
• CC(C)(C)OC(=O)CC[C@@]1(C(=O)NCCN2CCOCC2)N=C(c2ccc(OCCCO)cc2)O[C@@H]1c1ccccc1N=[N+]=[N-] = not fulfilled

Okay, next one:
Quick check, composite z-score >= 0.4? C=CCOC(=O)[C@H]1[C@@H]2C(=O)O[C@@H](c3ccccc3)[C@@H](c3ccccc3)N2[C@@H](c2ccc(OCCOC(=O)[C@H]3C[C@H]4C(=O)N5CCC[C@H]5C(=O)N4[C@H]3c3ccc(O)cc3)cc2)[C@]12C(=O)Nc1ccccc12
fulfilled

----------
Listed molecules paired with reported composite z-score
# ASSAY_PROTOCOL: small-molecule binders of probe aInhba, primary screen, biochemical, small-molecule microarray, 635/667 nm fluorescence (AID 1148);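 note: score merges 667nm spot fluorescence with signal-to-noise for antibody binding to printed compounds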
# PROTOCOL_CONDITIONS: higher = more signal
Number, no unit, nothing else.

Some entries whose results are on file:
- COc1ccc(CCN2C(=O)[C@@]3(c4ccc([N+](=O)[O-])cc4)CC(=O)N(C4CCCCC4)[C@@H]3c3ccc(CO)cc32)cc1: 0.158
- CCOC(=O)C[C@H]1[C@H](OC(=O)c2ccc(C(=O)c3ccccc3)cc2)[C@@H](NC(=O)c2ccc(-c3ccccc3)cc2)c2cc(OCCCO)ccc2N1C(=O)c1ccccc1: -0.128
- CCCC#C[Si](O[C@H](CC)c1cn([C@H](CO)Cc2ccccc2)nn1)(C(C)C)C(C)C: -0.128
- C=C/C=C/[C@H]1C(=C)CN([C@@H](Cc2ccccc2)C(=O)OC)[C@@H]1[C@H](O)Cc1ccccc1: -0.0736
- COC(=O)C(CC#Cc1ccc2c(c1)[C@]1(C(=O)N2)[C@H](C(=O)O)[C@H]2C(=O)O[C@H](c3ccccc3)[C@H](c3ccccc3)N2[C@@H]1c1ccc(O)cc1)C(=O)OC: -0.0405
- COCCCN1C(=O)[C@@]2(c3ccc([N+](=O)[O-])cc3)CC(=O)N(C3CCCCC3)[C@@H]2c2ccc(CO)cc21: -0.214

Let's switch to this molecule now.
Requested read-out: composite z-score. Entry: O=C1OCCC/C=C\[C@H]2OC34C=CCN(Cc5ccccc5)C(=O)[C@H]3N(CCCCCCO)C(=O)[C@@H]4C12 (some centres not stated)
-0.147

----------
# ASSAY_PROTOCOL: splicing luciferase reporter signal modulators, primary screen, spliceosome inhibition project, cell-based, HEK293, splice +/- reporter (AID 1101);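 note: HEK293 cells carrying a splicing-competent luciferase reporter gene; test concentration not given here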
# PROTOCOL_CONDITIONS: luminescence, 24 h, higher = more signal, called active from +8 up or from −8 down
Tag: MET if measured z-score is not below -0.2, NOT MET if it is.

Solved entries:
* CN(C)C(=O)[C@]1(Cc2ccccc2N=[N+]=[N-])N=C(c2ccc(OCCCO)cc2)O[C@@H]1c1ccccc1 | NOT MET
* C=C(CCCC)/C(=C/C[C@@H](OC(C)=O)c1ccccc1OCCO)c1cnc2ccccc2c1 | NOT MET
* CCOC(=O)C1=CCC(c2ccc(C)cc2)N(S(=O)(=O)c2ccc(C)cc2)C1 (stereo not given) | NOT MET
* C=C(COC)/C(=C/C[C@@H](OC(C)=O)c1ccc(OCCO)cc1)c1cc(C(=O)OC)ccc1OC | MET
* COc1ccc(C(=O)Nc2ccc(CN3C(=O)[C@@]4(O[C@@H](CCO)[C@H]([Si](C)(C)c5ccc(OC)cc5)[C@H]4C)c4ccccc43)cc2)cc1 | NOT MET

Quick check, z-score >= -0.2? N#Cc1ccc(NN2C(C(O)c3c(F)cccc3Cl)C=CC3C(=O)N(c4ccccc4)C(=O)C32)cc1 (stereo not given)
MET

Also, CC(C)(C)OC(=O)CC[C@@]1(C(=O)NCC(O)CO)N=C(c2ccc(OCCCO)cc2)O[C@@H]1c1ccccc1N=[N+]=[N-] (stereo not given in full) please.
NOT MET

Also, CN1C(=O)C2C=CC(C(O)Cc3ccccc3)N(Nc3ccccc3)C2C1=O (stereo not given) please.
MET

Also, C#CCN(Cc1ccccc1Br)C(/C=C/c1ccccc1)CO (stereo not given) please.
NOT MET

Also, [N-]=[N+]=NCc1ccccc1[C@@H]1OC(c2ccc(OCCCO)cc2)=N[C@]1(Cc1ccccc1N=[N+]=[N-])C(=O)N1CCOCC1 please.
MET

----------
Listed compounds paired with reported z-score
# ASSAY_PROTOCOL: CREB reporter modulators without forskolin, primary screen, cell-based, PC12, CRE-LacZ reporter, unstimulated (AID 1145)
# PROTOCOL_CONDITIONS: no forskolin, luminescence, 4.5 h, higher = more signal, called active from +8 up or from −8 down
Active and inactive are the calls of the source.

Some entries whose results are on file:
- COC(=O)[C@@]1(Cc2ccc(F)cc2)[C@H]2c3cc(C(=O)N4CCCC4)n(Cc4cc(C)n(C)n4)c3C[C@H]2CN1C(=O)c1ccccc1: 0.583 (inactive)
- Cc1ccc(S[C@]2(C(=O)NCC(F)(F)F)CC(=O)N(C(C)C)[C@@H]2c2ccc(CO)cc2I)cc1: 0.118 (inactive)
- COC(=O)[C@@]1(Cc2ccc(F)cc2)[C@@H]2[C@@H](CC(=O)[C@H]2CC(=O)C(=O)N(C)C)CN1C(=O)c1ccccc1: 0.576 (inactive)

Let's switch to this compound now.
Requested read-out: z-score. Entry: NC(=O)[C@@H]1[C@H]2C(=O)O[C@H](c3ccccc3)[C@H](c3ccccc3)N2[C@H](c2ccc(O)cc2)[C@@]12C(=O)Nc1ccc(C#CC3(O)CCCCCC3)cc12
0.568 (inactive)

----------
# ASSAY_PROTOCOL: S. cerevisiae RM11-1a growth modifiers, primary screen, strain RM11-1a, OD600, basal, 24 h (AID 1177);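 note: cultures grown under basal conditions with no added stressor; test concentration not given here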
# PROTOCOL_CONDITIONS: OD600, 24 h, higher = more signal, called active from +8 up or from −8 down
Listed compounds paired with reported z-score
Number, no unit, nothing else.

- [N-]=[N+]=NCc1ccccc1[C@@H]1OC(c2ccc(OCCCO)cc2)=N[C@]1(Cc1ccccc1N=[N+]=[N-])C(=O)N1CCOCC1: 0.602

Requested read-out: z-score. Entry: CCCCCN1CC=CC23O[C@@H]4/C=C\CCCOC(=O)C4[C@H]2C(=O)N(C(CO)C(C)C)[C@@H]3C1=O (some centres undefined)
0.226

Also, C=CCOC(=O)[C@@H]1[C@H]2C(=O)O[C@H](c3ccccc3)[C@H](c3ccccc3)N2[C@H](c2ccc(OCCOC(=O)[C@@H]3C[C@@H]4C(=O)N5CCC[C@H]5C(=O)N4[C@@H]3c3ccc(O)cc3)cc2)[C@@]12C(=O)Nc1ccc(I)cc12 please.
-0.468

Also, [N-]=[N+]=Nc1ccccc1C[C@@]1(C(=O)NCCN2CCOCC2)N=C(c2ccc(OCCCO)cc2)O[C@@H]1c1ccccc1 please.
-0.0653

----------
# ASSAY_PROTOCOL: basal MM1S mitochondrial membrane potential changes, profiling panel, cell-based, JC-1 fluorescence, 24 h, 100 nL compound (AID 1170); note: test concentration not given here
# PROTOCOL_CONDITIONS: higher = more signal
Classification scheme (z-score): low bracket (below -0.4), middle bracket (-0.4 to below 0.1), high bracket (0.1 or more)

Solved entries:
- COc1ccc(CCNC(=O)[C@@]2(C)c3ccccc3C(=O)N(Cc3cc(F)cc(C(F)(F)F)c3)[C@H]2c2ccc(CO)cc2)cc1: high bracket
- O=C(O)[C@@]1(CCS(=O)(=O)c2ccccc2)COC(c2ccc(OCCCO)cc2)=N1: low bracket
- CC(C)OC(=O)C=C1C[C@@H](c2ccccc2C(F)(F)F)O[C@@H](c2ccccc2C(F)(F)F)O1: low bracket
- CCCCc1cn(C[C@H](Cc2ccccc2)NC(=O)N[C@H](CO)CCc2oc(C(C)=O)c(C(=O)OC)c2C(=O)OC)nn1: high bracket
- NC(=O)[C@@H]1[C@H]2C(=O)O[C@H](c3ccccc3)[C@H](c3ccccc3)N2[C@H](c2ccc(O)cc2)[C@@]12C(=O)Nc1ccc(C#CC3(O)CCCCCC3)cc12: middle bracket
- CC(=O)NCCCC[C@@H]1NC(=O)[C@@H]2C[C@H](C(=O)NCCCCCCNC(=O)CS)[C@H](c3cccc(OCCO)c3)N2C1=O: middle bracket
- COc1cc(CO)cc(I)c1O[C@H]1C=C(C(=O)NCCO)C[C@@H](N(CCN2CCOCC2)C(=O)C2CCOC2)[C@@H]1O (some centres not stated): high bracket
- COc1cc2c(cc1OC)CN(C(=O)[C@H]1[C@@H]3C(=O)O[C@@H](c4ccccc4)[C@@H](c4ccccc4)N3[C@@H](c3ccc(O)cc3)[C@]13C(=O)Nc1ccc(C#CCNC(N)=O)cc13)CC2: middle bracket

Using the reported z-score, which band applies to COCCCN1C(=O)[C@@]2(Cc3ccccc31)c1ccccc1C(=O)N(Cc1ccccc1C(F)(F)F)[C@H]2c1ccc(CO)cc1 ?
high bracket

Also, CN1C(=O)C2C=CC(C(O)c3ccccc3)N(Nc3ccccc3)C2C1=O (configuration not stated) please.
middle bracket

Also, O=C1O[C@@H](c2ccccc2)[C@@H](c2ccccc2)N2[C@@H](c3ccc(OCCO)cc3)[C@]3(C(=O)Nc4ccccc43)[C@@H](C(=O)NC[C@H](O)c3ccccc3)[C@H]12 please.
middle bracket

Also, CS(=O)(=O)CCOC(=O)C1=CC(CCCO)=CC(c2ccc(CN3CCCC3)cc2)N(Cc2cc3c(cc2Br)OCO3)C=C1C(=O)OCCS(C)(=O)=O (configuration not stated) please.
high bracket

Also, C#CCN(CC=C(C)C)[C@H](CO)c1ccccc1 please.
high bracket

Also, C=CCC(OC(C)=O)[C@@H]1[C@@H](N(Cc2cccc3ccccc23)C(=O)c2ccc(-c3ccccc3)cc2)c2cc(OCCCO)ccc2N1C(=O)Cc1ccc(OC)cc1 (some centres not stated) please.
middle bracket

Also, CC(C)N1C(=O)[C@@]2(Cc3ccccc31)c1ccccc1C(=O)N(C1CCCCC1)[C@H]2c1ccc(CO)cc1 please.
low bracket

Also, C=CCOC(=O)[C@@H]1[C@H]2C(=O)O[C@H](c3ccccc3)[C@H](c3ccccc3)N2[C@H](c2ccc(OCCOC(=O)[C@@H]3C[C@@H]4C(=O)N5CCC[C@H]5C(=O)N4[C@@H]3c3ccc(O)cc3)cc2)[C@@]12C(=O)Nc1ccc(I)cc12 please.
low bracket

Also, CO[C@H]1O[C@H](CO)[C@@H](OC(=O)Nc2ccc(Br)cc2)[C@H](OC(=O)c2cc3ccccc3[nH]2)[C@H]1OC(=O)c1cc2ccccc2[nH]1 please.
low bracket

Also, C[C@]1(C(=O)NC2CC2)c2ccccc2C(=O)N(Cc2cc(C(F)(F)F)cc(C(F)(F)F)c2)[C@H]1c1ccc(CO)cc1 please.
middle bracket

Also, O=C1NC(=O)C2C1C=CC(C(O)c1cccc3ccccc13)N2Nc1ccccn1 (configuration not stated) please.
middle bracket

Also, CN1C(=O)C2C=CC(C(O)c3ccc(-c4ccccc4)s3)N(N(c3ccccc3)c3ccccc3)C2C1=O (configuration not stated) please.
low bracket

Also, C=CCC(OC(C)=O)[C@@H]1[C@@H](N(Cc2ccc(-c3cccc(C(F)(F)F)c3)o2)C(=O)Cc2ccc(F)cc2)c2cc(OCCCO)ccc2N1C(=O)Cc1ccc(OC)cc1 (some centres not stated) please.
middle bracket

Also, COCCOC(=O)N1C(=O)[C@@]2(c3cc(C#CC4(O)CCCCCC4)ccc31)[C@H](c1ccc(O)cc1)N1[C@H](c3ccccc3)[C@H](c3ccccc3)OC(=O)[C@H]1[C@@H]2C(=O)Nc1nc2ccccc2s1 please.
high bracket

Also, C=C/C=C/[C@H]1C(=C)CN([C@@H](Cc2ccccc2)C(=O)OC)[C@@H]1[C@H](O)Cc1ccccc1 please.
high bracket
